Test: In vivo pharmacokinetic study of oral rotundic acid with or without verapamil pre-treatment
Set-up: species or system Sprague–Dawley rats
Settings: male, Sprague-Dawley, rat, plasma, po, 10 mg/kg, rats, RA 10 mg/kg oral, pre-treatment of verapamil 50 mg/kg
observed.property: Vd/F (L/kg)
// return numeric value only (unit: L/kg, not printed)

Check the records and state Vd/F for C[C@@H]1CC[C@]2(C(=O)O)CC[C@]3(C)C(=CC[C@@H]4[C@@]5(C)CC[C@H](O)[C@@](C)(CO)[C@@H]5CC[C@]43C)[C@@H]2[C@]1(C)O
41.3

###

Experiment: In vivo pharmacokinetic study of oral rotundic acid with or without verapamil pre-treatment
Set-up: species or system Sprague–Dawley rats
Conditions: male, Sprague-Dawley, rat, plasma, po, 10 mg/kg, rats, RA 10 mg/kg oral, control (vehicle)
observed.property: CL/F (mL/min/kg)
// return numeric value only (unit: mL/min/kg, not printed)

Check the records and state CL/F for C[C@@H]1CC[C@]2(C(=O)O)CC[C@]3(C)C(=CC[C@@H]4[C@@]5(C)CC[C@H](O)[C@@](C)(CO)[C@@H]5CC[C@]43C)[C@@H]2[C@]1(C)O
393
